All values here come from patent US10287255B2.

assayed system: human recombinant HDAC6 (Homo sapiens, UniProt Q9UBN7)
Sequence (Q9UBN7 1-1215): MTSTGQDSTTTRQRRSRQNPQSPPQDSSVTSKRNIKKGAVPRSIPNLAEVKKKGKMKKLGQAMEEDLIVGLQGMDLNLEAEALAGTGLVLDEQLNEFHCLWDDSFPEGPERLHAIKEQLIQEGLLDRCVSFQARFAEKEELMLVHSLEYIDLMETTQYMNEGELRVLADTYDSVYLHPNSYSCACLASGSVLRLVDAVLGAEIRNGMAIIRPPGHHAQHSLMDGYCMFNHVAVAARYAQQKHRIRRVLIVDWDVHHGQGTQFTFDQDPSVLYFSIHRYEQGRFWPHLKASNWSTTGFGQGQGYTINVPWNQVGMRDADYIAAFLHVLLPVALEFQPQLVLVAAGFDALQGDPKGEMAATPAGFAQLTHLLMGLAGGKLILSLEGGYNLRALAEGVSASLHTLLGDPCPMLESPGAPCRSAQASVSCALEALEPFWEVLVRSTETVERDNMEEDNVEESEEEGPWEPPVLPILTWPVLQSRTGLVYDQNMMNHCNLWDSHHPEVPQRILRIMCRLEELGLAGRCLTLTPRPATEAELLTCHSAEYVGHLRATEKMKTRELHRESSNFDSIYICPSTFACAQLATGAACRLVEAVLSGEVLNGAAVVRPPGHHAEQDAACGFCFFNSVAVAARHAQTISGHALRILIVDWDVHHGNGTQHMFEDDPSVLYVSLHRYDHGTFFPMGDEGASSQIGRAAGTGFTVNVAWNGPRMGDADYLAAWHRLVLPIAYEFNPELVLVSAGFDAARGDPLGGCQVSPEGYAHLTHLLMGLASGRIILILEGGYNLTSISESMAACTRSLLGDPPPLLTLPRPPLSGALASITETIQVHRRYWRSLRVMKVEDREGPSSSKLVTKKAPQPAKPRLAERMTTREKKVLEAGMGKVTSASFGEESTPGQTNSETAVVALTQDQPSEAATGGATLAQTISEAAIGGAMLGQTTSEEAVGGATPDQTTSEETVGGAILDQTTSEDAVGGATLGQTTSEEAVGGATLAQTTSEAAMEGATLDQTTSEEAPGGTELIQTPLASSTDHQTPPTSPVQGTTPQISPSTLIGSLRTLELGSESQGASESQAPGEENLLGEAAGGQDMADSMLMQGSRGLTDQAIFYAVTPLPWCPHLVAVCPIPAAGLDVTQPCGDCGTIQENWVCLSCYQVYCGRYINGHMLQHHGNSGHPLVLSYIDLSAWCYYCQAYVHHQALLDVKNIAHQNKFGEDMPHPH
protocol text: HDAC6 enzyme activity inhibition assay (in vitro, fluorimetric)
conditions: human recombinant HDAC6, fluorimetric kit, same protocol as HDAC1
pIC50: −log10 of the molar value.
reported endpoint: pIC50

Use the examples below as a reference point.
> print(dat)
                                   molecule  reported.endpoint  result.number
1  CCC(=O)N1[C@H](C)CN(Cc2ccc(C(=O)NO)cc2)C[C@@H]1C [Compound 293]              pIC50           6.88
2  C[C@@H]1CN(Cc2ccc(C(=O)NO)cc2)C[C@H](C)N1C(=O)c1ccccc1-c1ccoc1 [Compound 284]              pIC50           7.17
3  C[C@@H]1CN(Cc2ccc(C(=O)NO)cc2)C[C@H](C)N1Cc1ccccc1C1=CCOCC1 [Compound 332]              pIC50           6.97
4  C[C@@H]1CN(Cc2ccc(C(=O)NO)cc2)C[C@H](C)N1Cc1ccc(CN2CCCCC2)cc1 [Compound 467]              pIC50           7.31
5  C[C@@H]1CN(Cc2ccc(C(=O)NO)cc2)C[C@H](C)N1S(=O)(=O)c1ccccc1 [Compound 100]              pIC50           7.02

(P) C[C@@H]1CN(Cc2ccc(C(=O)NO)cc2)C[C@H](C)N1C(=O)c1ccc(CN2CCCC2)cc1 [Compound 461]
(Q) C[C@@H]1CN(Cc2ccc(C(=O)NO)cc2)C[C@H](C)N1Cc1cccc(-n2cccc2)c1 [Compound 255]
(R) C[C@@H]1CN(Cc2ccc(C(=O)NO)cc2)C[C@H](C)N1Cc1cccc(CN2CCN(CC(C)(C)F)CC2)c1 [Compound 387]
(S) C[C@@H]1CN(Cc2ccc(C(=O)NO)cc2)C[C@H](C)N1CCCC(F)(F)F [Compound 204]
Ask: Sort entries by pIC50 from minimum to maximum value. To answer, write out the labels according to the requested order.
Reply: S, P, R, Q
(S: 6.09, P: 6.62, R: 7.07, Q: 7.62)

(a) C[C@@H]1CN(Cc2ccc(S(C)(=O)=O)cc2)C[C@H](C)N1Cc1ccc(C(=O)NO)cc1 [Compound 300]
(b) C[C@@H]1CN(Cc2ccc(C(=O)NO)cc2)C[C@H](C)N1C(=O)c1cnccn1 [Compound 404]
(c) CCN(CC)Cc1cccc(C(=O)N2[C@H](C)CN(Cc3ccc(C(=O)NO)cc3)C[C@@H]2C)c1 [Compound 425]
Ask: Reorder: pIC50, max to min. # format: label list in the order the request specifies
Reply: c, b, a
